test system: U2OS; assay: Multiplex assay against U2OS; assay type: toxicity, cell-based; conditions: human, 12 h, 10 µM, compound concentration 10 uM, replicate 2

| COMPOUND | Population Healthy Nuclei (%) |
| --- | --- |
| CCC(=O)OCC(=O)[C@@]1(OC(=O)CC)[C@@H](C)C[C@H]2[C@@H]3CCC4=CC(=O)C=C[C@]4(C)[C@@]3(Cl)[C@@H](O)C[C@@]21C [BECLOMETHASONE DIPROPIONATE] | 69 |
| COC(c1ccccc1)(c1ccccc1)[C@H](Oc1nc(C)cc(C)n1)C(=O)O [AMBRISENTAN] | 72 |
| O=C(Nc1cc(-c2ccccc2)nn1-c1ccccc1F)c1ccc([N+](=O)[O-])cc1 | 73 |
| CCCCC[C@H](O)/C=C/[C@H]1[C@H](O)CC(=O)[C@@H]1CCCCCCC(=O)O [ALPROSTADIL] | 75 |
| CCn1c(-c2nc3cc(C(=O)N4CCCC(N)C4)ccc3n2C)cc2ccccc21.Cl (stereo not drawn) | 60 |
| O=c1ccc2ccc(OCCCCN3CCN(c4cccc5sccc45)CC3)cc2[nH]1 [BREXPIPRAZOLE] | 43 |
| CN1CCC(C(=O)c2cccc(NC(=O)c3c(F)cc(F)cc3F)n2)CC1 | 68 |
| COc1c(Nc2ccc(S(C)(=O)=O)nc2C)ncnc1OC1CCN(C(=O)OC(C)C)CC1 [ADP-597] | 77 |

###

Recorded Population Mitochondria Different-Phenotype (%) by entry
system: U2OS; assay: Multiplex assay against U2OS; type: toxicity, cell-based; details: human, 24 h, 10 µM, compound concentration 10 uM, replicate 2
VALUE_KIND: Population Mitochondria Different-Phenotype (%)

| COMPOUND | NUMBER |
| --- | --- |
| Cc1cc(=O)n(C)c2cc(N3C(=O)CC[C@H](NS(=O)(=O)CC(C)C)[C@H]3c3ccc(Cl)cc3)ccc12 | 59 |
| CCCCC[C@H](O)/C=C/[C@H]1[C@H](O)CC(=O)[C@@H]1CCCCCCC(=O)O [ALPROSTADIL] | 2 |
| CC(C)(C)c1ccc(CSc2cnn(C(C)(C)C)c(=O)c2Cl)cc1 [PYRIDABEN] | 1 |
| Cl.Cl.OCCOCCN1CCN(C(c2ccccc2)c2ccc(Cl)cc2)CC1 (stereo not drawn) [HYDROXYZINE HYDROCHLORIDE] | 13 |
| Cc1cc(-c2ccc3c(c2)CC[C@H]3N2CC3(CCN(C(=O)Cc4cn5cc(C)sc5n4)CC3)C2)ncn1 [PF-5190457] | 8 |
| O=C(Nc1cc(-c2ccccc2)nn1-c1ccccc1F)c1ccc([N+](=O)[O-])cc1 | 8 |
| O=c1ccc2ccc(OCCCCN3CCN(c4cccc5sccc45)CC3)cc2[nH]1 [BREXPIPRAZOLE] | 86 |
| S=C(NCCCc1c[nH]cn1)NCCCN(Cc1ccc(Cl)c(Cl)c1)c1ccc(Br)cn1 | 32 |

###

system: Fibroblast; test: Multiplex assay against human fibroblast; assay type: toxicity, cell-based; details: 24 h, 1 µM, compound concentration 1 uM, replicate 1
Param label: returns yes (1) when Population Tubulin-Different-Phenotype (%) < 30%, returns no (0) otherwise, including exact equality.

| COMPOUND | ASSIGNED_CATEGORY |
| --- | --- |
| CC(C)C[C@H](CO)Nc1nc(S[C@@H](C)c2ccccc2)nc2nc(N)sc12 | yes (1) |
| COc1cc(Nc2ncc3c(n2)-c2ccc(Cl)cc2C(c2c(F)cccc2OC)=NC3)ccc1C(=O)O | yes (1) |
| CSc1nc(NC2CCCC2)c([N+](=O)[O-])c(NC2CCCC2)n1 | yes (1) |
| COc1cc(OC2CCN(C(C)=O)CC2)ccc1C(=O)N1CCC(N2C(=O)OCc3ccccc32)CC1 | no (0) |
| CN1CCC(C(=O)c2cccc(NC(=O)c3c(F)cc(F)cc3F)n2)CC1 | yes (1) |
| CN1CCN2c3ccccc3Cc3ccccc3C2C1.Cl (centres undefined) [MIANSERIN HYDROCHLORIDE] | yes (1) |
| OCCCNc1cc(-c2ccnc(Nc3cccc(Cl)c3)n2)ccn1 | no (0) |
| CCc1nn2c(C)cc(C)nc2c1Cc1ccc(-c2nnc(C3CCNCC3)o2)cc1 | no (0) |

###

tested on: Fibroblast; experiment: Multiplex assay against human fibroblast; type: toxicity, cell-based; settings: 48 h, 1 µM, compound concentration 1 uM, replicate 2
Each entry below carries its reported Population Hoechst High Intensity Objects (%).
VALUE_KIND: Population Hoechst High Intensity Objects (%)

| MOLECULE | NUMBER |
| --- | --- |
| CC(C)C[C@H](CO)Nc1nc(S[C@@H](C)c2ccccc2)nc2nc(N)sc12 | 4 |
| COCCn1c(C)c(C)s/c1=N\C(=O)C1C(C)(C)C1(C)C | 7 |
| COc1c(Nc2ccc(S(C)(=O)=O)nc2C)ncnc1OC1CCN(C(=O)OC(C)C)CC1 | 9 |
| N[C@](CC1c2ccccc2Oc2ccccc21)(C(=O)O)[C@H]1C[C@@H]1C(=O)O | 8 |
| CN(C)C/C=C/C(=O)Nc1ccc(C(=O)N2CCCC(Nc3ncc(Cl)c(-c4c[nH]c5ccccc45)n3)C2)cc1 (stereo unspecified) | 8 |
| COc1cc(OC2CCN(C(C)=O)CC2)ccc1C(=O)N1CCC(N2C(=O)OCc3ccccc32)CC1 | 3 |
| Cn1cc(C(=O)OCC2CCN(CCNS(C)(=O)=O)CC2)c2ccccc21 | 4 |
| COc1ccc2[nH]c(I)c(CCNC(C)=O)c2c1 | 4 |
| CCC(=O)OCC(=O)[C@@]1(OC(=O)CC)[C@@H](C)C[C@H]2[C@@H]3CCC4=CC(=O)C=C[C@]4(C)[C@@]3(Cl)[C@@H](O)C[C@@]21C [BECLOMETHASONE DIPROPIONATE] | 7 |
| COc1ccc2c(c1OCc1ccccc1)C[C@@H](C(=O)O)N(C(=O)C(c1ccccc1)c1ccccc1)C2 | 1 |
| CC(C)(O)C(=O)N1CCN(c2ccc(C(F)(F)F)c(C3=C(c4c[nH]c5ccccc45)C(=O)NC3=O)c2)CC1 | 7 |
| CC(F)(F)CN1CCOc2c(nn(-c3ccccc3Cl)c2-c2ccc(Cl)cc2)C1=O | 4 |
| CN1C[C@H](C(=O)N[C@]2(C)O[C@@]3(O)[C@@H]4CCCN4C(=O)[C@H](Cc4ccccc4)N3C2=O)C[C@@H]2c3cccc4[nH]cc(c34)C[C@H]21.CS(=O)(=O)O [DIHYDROERGOTAMINE MESYLATE] | 5 |
| CCCCCCNC(=O)Nc1ccc(S(=O)(=O)Nc2ccc(CCNC[C@H](O)COc3ccc(O)cc3)cc2)cc1 | 4 |
| COc1cc(C(=O)N2CC[C@@H](O)[C@@H](N)C2)cc2nc(-c3cc4ccccc4n3CC3CC3)n(C)c12.Cl | 1 |
| CC(C)(C)c1ccc(CSc2cnn(C(C)(C)C)c(=O)c2Cl)cc1 | 4 |

###

test system: HEK-293T; experiment: Multiplex assay against HEK293T; format: toxicity, cell-based; details: human, 12 h, 1 µM, compound concentration 1 uM, replicate 2
VALUE_KIND: Population Pyknosed Nuclei (%)

| COMPOUND | ASSAY_TARGET | VALUE_KIND | RESULT |
| --- | --- | --- | --- |
| CCc1nn2c(C)cc(C)nc2c1Cc1ccc(-c2nnc(C3CCNCC3)o2)cc1 | HEK-293T | Population Pyknosed Nuclei (%) | 13% |
| Cn1cc(C(=O)OCC2CCN(CCNS(C)(=O)=O)CC2)c2ccccc21 | HEK-293T | Population Pyknosed Nuclei (%) | 14% |
| S=C(NCCCc1c[nH]cn1)NCCCN(Cc1ccc(Cl)c(Cl)c1)c1ccc(Br)cn1 | HEK-293T | Population Pyknosed Nuclei (%) | 14% |
| Cc1cc(-c2ccc3c(c2)CC[C@H]3N2CC3(CCN(C(=O)Cc4cn5cc(C)sc5n4)CC3)C2)ncn1 | HEK-293T | Population Pyknosed Nuclei (%) | 19% |
| COc1ccc2c(c1OCc1ccccc1)C[C@@H](C(=O)O)N(C(=O)C(c1ccccc1)c1ccccc1)C2 | HEK-293T | Population Pyknosed Nuclei (%) | 10% |
| CSc1nc(NC2CCCC2)c([N+](=O)[O-])c(NC2CCCC2)n1 | HEK-293T | Population Pyknosed Nuclei (%) | 11% |
| O=C(NCCNCC(O)COc1ccc(O)cc1)N1CCOCC1.O=C(NCCNCC(O)COc1ccc(O)cc1)N1CCOCC1.O=C(O)/C=C/C(=O)O (stereo not drawn) [XAMOTEROL FUMARATE] | HEK-293T | Population Pyknosed Nuclei (%) | 17% |
| COc1ccc2[nH]c(I)c(CCNC(C)=O)c2c1 | HEK-293T | Population Pyknosed Nuclei (%) | 10% |
